- target.or.system: Neprilysin (Rattus norvegicus)
- Sequence (P07861 whole entry): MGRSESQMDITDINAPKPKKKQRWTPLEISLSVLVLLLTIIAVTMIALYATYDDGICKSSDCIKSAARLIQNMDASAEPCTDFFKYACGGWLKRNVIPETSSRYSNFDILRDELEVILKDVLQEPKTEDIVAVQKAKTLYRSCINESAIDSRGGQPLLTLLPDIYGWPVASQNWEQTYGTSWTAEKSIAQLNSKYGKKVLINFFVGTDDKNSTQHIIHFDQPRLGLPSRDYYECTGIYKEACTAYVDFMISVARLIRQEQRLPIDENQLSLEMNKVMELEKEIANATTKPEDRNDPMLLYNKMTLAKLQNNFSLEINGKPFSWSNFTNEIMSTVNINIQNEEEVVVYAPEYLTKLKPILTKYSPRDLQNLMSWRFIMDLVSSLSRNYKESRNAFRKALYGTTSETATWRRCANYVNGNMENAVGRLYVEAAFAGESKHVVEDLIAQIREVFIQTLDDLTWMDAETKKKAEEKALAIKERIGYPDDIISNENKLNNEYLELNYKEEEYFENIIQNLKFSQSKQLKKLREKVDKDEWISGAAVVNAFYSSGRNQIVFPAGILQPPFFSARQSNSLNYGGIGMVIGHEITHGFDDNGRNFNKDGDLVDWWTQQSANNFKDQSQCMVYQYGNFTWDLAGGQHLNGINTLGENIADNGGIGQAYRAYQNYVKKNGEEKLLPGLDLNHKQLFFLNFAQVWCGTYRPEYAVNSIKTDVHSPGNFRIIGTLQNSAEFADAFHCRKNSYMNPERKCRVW
assay.endpoint: pKi
The scale used: pKi is minus the common logarithm of the concentration in molar units.

Record summary for CC(C)CC(C(=O)O)N1CCO[C@@H](c2ccccc2)[C@H](NC(=O)[C@H](S)Cc2ccccc2)C1=O (single isomer, unassigned) : reported pKi = 6.48

Provenance of the data: ChEMBL document CHEMBL1153260
